Assay: Solubility of the compound at pH 6.8
Assay type: physicochemical
Conditions: buffer
observed property: solubility

(Q) Entry under review: `COc1ccc(C2(C(=O)N3CS(=O)(=O)C[C@@H]3C(=O)Nc3cccc4[nH]ncc34)CCCC2)cc1` . Reported solubility?
(A) 50 µg/mL

* * *

Test: Permeability of compound at pH 5.0 by PAMPA assay
Assay type: ADME
Conditions: read-out: permeability
observed property: Papp

(Q) Bench note: what Papp did `COc1ccc(C2(C(=O)N3CS(=O)(=O)C[C@@H]3C(=O)Nc3cccc4[nH]ncc34)CCCC2)cc1` show?
(A) > 50 ×10⁻⁶ cm/s

* * *

Target: Histone acetyltransferase p300 (Homo sapiens)
Sequence (Q09472 whole entry): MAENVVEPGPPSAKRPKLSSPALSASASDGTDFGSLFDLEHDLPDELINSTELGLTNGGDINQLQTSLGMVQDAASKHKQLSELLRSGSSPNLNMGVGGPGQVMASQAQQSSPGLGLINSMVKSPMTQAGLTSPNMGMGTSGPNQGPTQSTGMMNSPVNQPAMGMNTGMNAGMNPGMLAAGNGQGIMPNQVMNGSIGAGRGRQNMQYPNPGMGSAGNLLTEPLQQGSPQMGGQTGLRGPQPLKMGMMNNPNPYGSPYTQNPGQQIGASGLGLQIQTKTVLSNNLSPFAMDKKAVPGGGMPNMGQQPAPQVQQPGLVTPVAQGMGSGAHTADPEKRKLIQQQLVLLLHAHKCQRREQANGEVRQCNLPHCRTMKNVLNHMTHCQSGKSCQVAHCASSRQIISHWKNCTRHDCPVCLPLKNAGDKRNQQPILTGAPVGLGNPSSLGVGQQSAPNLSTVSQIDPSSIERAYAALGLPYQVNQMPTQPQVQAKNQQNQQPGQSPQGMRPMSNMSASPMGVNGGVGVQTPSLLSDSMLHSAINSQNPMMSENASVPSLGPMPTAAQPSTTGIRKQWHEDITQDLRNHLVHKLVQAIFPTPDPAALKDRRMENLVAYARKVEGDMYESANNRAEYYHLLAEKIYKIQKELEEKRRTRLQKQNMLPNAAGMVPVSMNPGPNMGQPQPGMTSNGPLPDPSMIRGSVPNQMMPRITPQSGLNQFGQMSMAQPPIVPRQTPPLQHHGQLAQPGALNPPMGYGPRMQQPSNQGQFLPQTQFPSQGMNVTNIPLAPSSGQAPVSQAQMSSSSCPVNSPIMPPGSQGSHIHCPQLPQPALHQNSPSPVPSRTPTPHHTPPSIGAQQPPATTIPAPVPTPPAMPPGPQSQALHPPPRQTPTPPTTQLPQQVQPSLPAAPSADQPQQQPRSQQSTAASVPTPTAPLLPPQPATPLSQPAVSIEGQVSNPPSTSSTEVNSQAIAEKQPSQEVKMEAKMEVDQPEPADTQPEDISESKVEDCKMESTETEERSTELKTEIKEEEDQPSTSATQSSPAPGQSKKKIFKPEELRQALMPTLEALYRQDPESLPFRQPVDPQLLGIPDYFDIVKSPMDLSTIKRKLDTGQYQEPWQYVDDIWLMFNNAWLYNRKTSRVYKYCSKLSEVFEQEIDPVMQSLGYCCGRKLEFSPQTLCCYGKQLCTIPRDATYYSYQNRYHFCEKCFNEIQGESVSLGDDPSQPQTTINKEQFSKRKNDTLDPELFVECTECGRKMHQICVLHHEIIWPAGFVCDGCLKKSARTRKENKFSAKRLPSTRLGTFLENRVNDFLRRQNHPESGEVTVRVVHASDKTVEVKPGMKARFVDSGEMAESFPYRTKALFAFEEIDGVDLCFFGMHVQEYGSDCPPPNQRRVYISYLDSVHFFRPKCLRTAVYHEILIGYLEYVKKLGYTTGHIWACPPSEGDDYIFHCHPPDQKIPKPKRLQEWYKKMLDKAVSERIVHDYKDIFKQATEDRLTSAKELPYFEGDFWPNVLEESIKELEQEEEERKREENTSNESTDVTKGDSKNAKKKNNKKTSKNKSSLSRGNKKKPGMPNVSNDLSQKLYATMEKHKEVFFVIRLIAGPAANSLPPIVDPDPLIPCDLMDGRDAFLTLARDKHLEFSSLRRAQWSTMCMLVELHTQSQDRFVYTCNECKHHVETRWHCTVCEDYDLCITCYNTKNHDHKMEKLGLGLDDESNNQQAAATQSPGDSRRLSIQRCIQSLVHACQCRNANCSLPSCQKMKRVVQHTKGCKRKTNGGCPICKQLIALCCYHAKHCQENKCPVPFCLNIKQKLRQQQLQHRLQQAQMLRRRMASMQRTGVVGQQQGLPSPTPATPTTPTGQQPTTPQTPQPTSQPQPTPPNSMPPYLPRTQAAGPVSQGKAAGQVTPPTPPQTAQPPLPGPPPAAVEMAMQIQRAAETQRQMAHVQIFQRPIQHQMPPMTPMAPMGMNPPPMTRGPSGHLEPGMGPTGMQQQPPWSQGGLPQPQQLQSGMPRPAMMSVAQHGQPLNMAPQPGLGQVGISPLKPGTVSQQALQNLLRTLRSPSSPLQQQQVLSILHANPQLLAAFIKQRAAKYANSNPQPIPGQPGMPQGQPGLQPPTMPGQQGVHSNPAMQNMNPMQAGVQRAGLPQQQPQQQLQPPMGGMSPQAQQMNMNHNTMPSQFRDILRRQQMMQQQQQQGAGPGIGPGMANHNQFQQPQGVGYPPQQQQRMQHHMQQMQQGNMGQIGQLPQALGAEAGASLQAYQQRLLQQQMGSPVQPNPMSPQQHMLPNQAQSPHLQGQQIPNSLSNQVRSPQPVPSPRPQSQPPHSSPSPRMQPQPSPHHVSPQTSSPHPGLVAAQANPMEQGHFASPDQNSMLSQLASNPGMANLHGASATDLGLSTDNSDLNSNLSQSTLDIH
Experiment: Inhibition of EP300 in human LK2 cells assessed as reduction in intracellular histone H3 acetylation at lysine 27 residue incubated for 3 hrs by chemiluminescence based ELISA
Assay type: cell-based
observed property: pIC50
Convention used: pIC50 is expressed as -log10 of the molar concentration.

Solved entries:
(Q) What pIC50 value was documented for this compound, COc1ccc(C2(C(=O)N3CCOCC(Cc4cccc5[nH]ncc45)C3)CCCC2)cc1 (single isomer, unassigned; (+)) ?
(A) 6.89

(Q) What measured pIC50 goes with COc1ccc(C2(C(=O)N3CCOCC(Cc4cccc5[nH]ncc45)C3)CCCCC2)cc1 (centres undefined) ?
(A) 6.21

Next up:
(Q) Query: pIC50; subject: `COc1ccc(C2(C(=O)N(C)CC(=O)Nc3cccc4[nH]ncc34)CCCCC2)cc1`
(A) 6.00
